src = patent US20050222251A1

Assay: Plasma protein binding, filtration method, 14C-labeled compound
Format: in vitro ADME
Conditions: Sprague-Dawley (SD), rat, broad range of concentrations
measurement_type: fraction unbound

Req: For the compound shown here, `CC1(C)OC(c2ccc(S(N)(=O)=O)cc2)=C(c2cccc(F)c2)C1=O` , give the reported fraction unbound.
Resp: ~0.1

----------
Biological target: Human CA II (Homo sapiens, UniProt P00918)
Construct: purchased Sigma C-4936
Test: Inhibition assay for CA (Method A), CA II
Assay type: biochemical
Settings: CO2 hydration, phenol red
measurement_type: IC50 (nM)
Answer format: numeric, nM implied, no suffix.

Example results:
>>> df
                            smiles_notation  reading
0  CC1(C)OC(c2ccc(S(N)(=O)=O)c(F)c2)=C(c2cc(F)cc(F)c2)C1=O      630
1  CC1(C)OC(c2ccc(S(N)(=O)=O)c(F)c2)=C(c2cccc(F)c2)C1=O      450
2  Cc1cc(C2=C(c3cccc(F)c3)C(=O)C(C)(C)O2)ccc1S(N)(=O)=O     5400
3  CC1(C)OC(c2ccc(S(N)(=O)=O)c(F)c2)=C(c2ccc(F)c(F)c2)C1=O      910
4  CC1(C)OC(c2ccc(S(N)(=O)=O)cc2)=C(c2cc(F)ccc2F)C1=O      740
5  CC1(C)OC(c2ccc(S(N)(=O)=O)cc2F)=C(c2cc(F)cc(F)c2)C1=O      630
6  CC1(C)OC(c2ccc(S(N)(=O)=O)cc2)=C(c2cccc(F)c2)C1=O      800
7  CC1(C)OC(c2ccc(S(N)(=O)=O)c(F)c2)=C(c2cc(F)ccc2F)C1=O      480

Req: For the compound shown here, `CC1(C)OC(c2ccc(S(N)(=O)=O)cc2F)=C(c2ccc(F)cc2)C1=O` , give the reported IC50.
Resp: 420
